B1: TFE3 (parent)
chain: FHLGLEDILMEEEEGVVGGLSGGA

variants of: B1; test: protein stability index of a GFP-peptide fusion (GPS, HEK-293T) (PSI 1-6); higher = more stable; conditions: c terminus: a fixed tail appended;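 further: lentivirally expressed fusions sorted by FACS into six bins by GFP to DsRed ratio, PSI derived from sequencing read proportions per bin multiplied by bin number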
READOUT TYPE: protein stability index
One number for each entry.

[
  {
    "VARIANT NOTATION": "V17C",
    "protein stability index": 4.01
  },
  {
    "VARIANT NOTATION": "V17Q",
    "protein stability index": 3.69
  },
  {
    "VARIANT NOTATION": "L3K",
    "protein stability index": 4.49
  },
  {
    "VARIANT NOTATION": "L9G",
    "protein stability index": 4.43
  }
]

Return reported protein stability index values for all items listed beneath this line.
1. L5S
2. G4F
3. L9S
4. L20Y
5. E14F
6. S21W
7. L9C
8. I8M

Given back:
[4.37, 2.01, 3.69, 3.41, 1.78, 2.3, 4.06, 3.58]

Give me protein stability index for each of these variants, listed below.
1. M10Q
2. G18P
3. V16C
4. G23A
5. E12V
6. V17N
7. I8W

Given back:
1. 4.34
2. 3.85
3. 4.07
4. 3.37
5. 1.74
6. 4.76
7. 3.24

// data source = the supplement of paper PMC10567573
